assay system: HLA-B0702 (human)
assay text: competition vs labelled reference peptide
Reported Ki values for a set of binders
Record the value in nM, omitting the unit from your answer.

Use these answered entries as a reference point.
AARALAHGV (modifications not checked) : 209
APLGGAARA (modifications not checked) : 115

// next entry
Item under review: ATLGFGAYM (modifications not checked) . Reported Ki? 13000
